System: TYK2 pseudokinase (JH2); IFNα-stimulated HEK-Blue IFNα/β cells
assayInfo: HEK-Blue IFNα/β reporter assay (STAT1-inducible SEAP) for profiling TYK2 pseudokinase (JH2) inhibition
Assay type: cell-based
measurementSetup: 1 ng/mL human recombinant IFNα, SEAP readout, read-out: IFNα (TYK2 inhibitory activity, IC50)
pIC50: −log10 of the molar value.
Can you tell me pIC50 for the items I'm about to list?

Query: Give reported pIC50 value for [2H]C([2H])([2H])NC(=O)c1nnc(NC(=O)C2CC2)cc1Nc1cccc2c1N(C)Cc1cn(C)nc1-2
Result: > 7.52

Query: // Input: [2H]C([2H])([2H])NC(=O)c1nnc(NC(=O)C2CC2)cc1Nc1nccc2c1N(C)[C@H](C)c1cn(C)nc1-2 (single isomer, unassigned) . Output its pIC50 only.
Result: > 7.52

Query: Supply recorded pIC50 for [2H]C([2H])([2H])NC(=O)c1nnc(N(C)C(=O)C2CC2)cc1Nc1nccc2c1N(C)C([2H])([2H])c1cn(C)nc1-2 here.
Result: 6.52 to 7.52

Query: Determine from records and report pIC50 for Cn1cc2c(n1)-c1cccc(Nc3cc(NC(=O)C4CC4)nc4[nH]n(C)c(=O)c34)c1OC2
Result: < 6.00

Query: Look up pIC50 of [2H]C([2H])([2H])NC(=O)c1nnc(NC(=O)NC)cc1Nc1nccc2c1N(C)Cc1cc(C)nn1-2 and report it.
Result: 6.52 to 7.52

Query: Retrieve pIC50 measured for [2H]C([2H])([2H])NC(=O)c1nnc(NC(=O)C2CC2)cc1Nc1cccc2c1N(C)C([2H])([2H])c1cc(C)nn1-2 and print it.
Result: > 7.52

Query: Could you please provide reported pIC50 for [2H]C([2H])([2H])NC(=O)c1cnc(NC(=O)C2CC2)cc1Nc1cccc2c1N(C)Cc1cn(C([2H])([2H])[2H])nc1-2 ? Thanks!
Result: > 7.52

Query: Supply measured pIC50 of [2H]C([2H])([2H])NC(=O)c1cnc(NC(=O)C2CC2)cc1Nc1cccc2c1N(C)[C@H](C)c1cn(C)nc1-2 (single isomer, unassigned) in your reply.
Result: 6.52 to 7.52

Query: Read off the recorded pIC50 for CNC(=O)c1nnc(Nc2ccc(F)cn2)cc1Nc1cccc2c1OC(C)c1cn(C)nc1-2 (stereo not shown)
Result: < 6.00

Query: For the compound [2H]C([2H])([2H])NC(=O)c1nnc(NC(=O)N(C)C)cc1Nc1nccc2c1N(C)C([2H])([2H])c1cn(C)nc1-2 , give its reported pIC50.
Result: 6.52 to 7.52

Query: Note down pIC50 recorded for [2H]C([2H])([2H])NC(=O)c1cnc(NC(=O)[C@H]2C[C@H]2F)cc1Nc1cccc2c1N(C)Cc1cn(C)nc1-2 (single isomer, unassigned)
Result: > 7.52

Query: Look up pIC50 of [2H]C([2H])([2H])NC(=O)c1cnc(NC(=O)NC)cc1Nc1cccc2c1N(C)Cc1cn(C)nc1-2 and report it.
Result: > 7.52

Query: Using known records, supply pIC50 for [2H]C([2H])([2H])NC(=O)c1cnc(NC(=O)C2CC2)cc1Nc1nccc2c1N(C)C([2H])([2H])c1cn(C)nc1-2
Result: > 7.52
